Origin of values: PubChem BioAssay (EPA / NIEHS)

# assay.explanation: ATG_TGFb_CIS: Attagene CIS-FACTORIAL HepG2 Assay for human Transforming Growth Factor (TGF) (AID 2282967)
# experimental.context: HepG2 Attagene CIS TGFb reporter, mRNA transcription; actives raise or lower the signal
Calls of active or inactive are those of the source. How the source made its calls: active means hit-call score of the fitted dose curve at least 0.9, where 1 is the maximum; inactive means score below 0.9.
property.label: outcome

These recorded examples may help you get a feel for the data.
// Cc1nn(-c2cc(NS(C)(=O)=O)c(Cl)cc2Cl)c(=O)n1C(F)F : outcome value = inactive

// CCc1cccc(CC)c1N(COC)C(=O)CCl : outcome value = inactive

// COc1cc(OC)nc(Sc2cccc(Cl)c2C(=O)O)n1 : outcome value = inactive

// CCC(=O)Nc1ccc(Cl)c(Cl)c1 : outcome value = inactive

// CCCSP(=O)(OCC)SCCC : outcome value = inactive

Next:
// CCC(=NOC/C=C/Cl)C1=C(O)CC(C2CCOCC2)CC1=O (stereo not drawn) : outcome value = inactive

// CCCOc1nn(C(=O)NS(=O)(=O)c2ccccc2C(=O)OC)c(=O)n1C : outcome value = inactive

// C[N+]1(C)CCCCC1 : outcome value = inactive

// CCOP(=S)(OCC)Oc1ccc([N+](=O)[O-])cc1 : outcome value = inactive

// CCc1cccc(C)c1N(C(=O)CCl)C(C)COC (stereo not drawn) : outcome value = inactive

// CC(C)=CC1C(C(=O)OCN2C(=O)C3=C(CCCC3)C2=O)C1(C)C (stereo not drawn) : outcome value = inactive

// CSc1nc(NC(C)C)nc(NC(C)C)n1 : outcome value = inactive

// S=C1NCCN1 : outcome value = inactive

---

# Read-out: xenobiotic metabolism (CYP1A2), CYP1A2 (gene 1544)
# assay.explanation: CLD_CYP1A2_24hr: CellzDirect (CLD) Gene Expression Assay for xenobiotic metabolism (CYP1A2) at 24 hours (AID 2283683)
Records with an inconclusive call do not appear. Active and inactive are the calls of the source. The calls were made as follows: active = hit-call score of the fitted dose curve at least 0.9, where 1 is the maximum; inconclusive = response in the unintended direction; inactive = score below 0.9.
Outcome (select one): yes for active, no for inactive

Give the logged outcome of this assay for the following compound: CCC(CC)Nc1c([N+](=O)[O-])cc(C)c(C)c1[N+](=O)[O-] yes

Give the logged outcome of this assay for the following compound: CCCSP(=O)(OCC)SCCC yes

Give the logged outcome of this assay for the following compound: CC(C)[C@H](C(=O)O[C@H](C#N)c1cccc(Oc2ccccc2)c1)c1ccc(Cl)cc1 no

Give the logged outcome of this assay for the following compound: CNC(=O)Oc1cccc2c1OC(C)(C)O2 yes

Give the logged outcome of this assay for the following compound: CNC(=O)ON=C(C)SC no

Give the logged outcome of this assay for the following compound: COc1cccc(C(=O)NN(C(=O)c2cc(C)cc(C)c2)C(C)(C)C)c1C yes

Give the logged outcome of this assay for the following compound: CCOP(=O)(NC(C)C)Oc1ccc(SC)c(C)c1 (configuration not stated) yes

Give the logged outcome of this assay for the following compound: C[Si](Cn1cncn1)(c1ccc(F)cc1)c1ccc(F)cc1 yes

Give the logged outcome of this assay for the following compound: CC(Oc1cccc(Cl)c1)C(=O)O (configuration not stated) no

Give the logged outcome of this assay for the following compound: CCCOCC(=Nc1ccc(Cl)cc1C(F)(F)F)n1ccnc1 yes

Give the logged outcome of this assay for the following compound: O=C(O)c1cc(Oc2ccc(C(F)(F)F)cc2Cl)ccc1[N+](=O)[O-] no

Give the logged outcome of this assay for the following compound: COP(=O)(OC)SCn1c(=O)oc2cc(Cl)cnc21 no
